Test: Toxicity liver stage against HepG2, at 10uM
Type: cell-based
Parameters: test concentration 10 uM, cell line HepG2-A16-CD81EGFP
Conditions: human, HepG2-A16-CD81EGFP cells; read-out: INHIBITION
Record form. Attribute: cytotoxicity at 10 µM. Fill in for each entry.
One number for each entry, in %.

For each of the compounds below, state cytotoxicity at 10 µM.
1. CN(Cc1nc(Cc2cccc(F)c2)no1)C1CCOCC1
2. Cc1ccc(-c2nnc(CNC(=O)c3cccnc3)o2)cn1
3. CN(C)c1cc(C(=O)Nc2cccnc2N2CCSCC2)ccn1

[A]
2.79
-2.72
-2.9

For each of the compounds below, state cytotoxicity at 10 µM.
1. O=C(c1ccccn1)N1CCC2(COc3ncccc3S(=O)(=O)N2)C1 (configuration not stated)
2. Cc1cc(CN2CCN(Cc3ccccc3F)CC2)no1
3. O=C(Cn1cccnc1=O)NCC1Cc2ccccc2O1 (configuration not stated)
4. OCCOc1ccc(NCc2cccnc2)cn1
5. Cc1ccccc1CCCN1C(=O)CC2(CCSC2)C1=O (configuration not stated)
6. O=C(CCNC(=O)c1ccccc1F)NCCNc1cccnc1
7. CCc1nc(CC(=O)N2CCOCC2c2ncon2)cs1 (configuration not stated)
8. Cc1cc(C(=O)N2CC[C@H]3[C@@H]2CCC(=O)N3c2ccccc2)no1

[A]
1: 8.96; 2: 4.51; 3: -4.62; 4: 1.04; 5: -3.45; 6: -7.55; 7: -2.58; 8: -113

For each of the compounds below, state cytotoxicity at 10 µM.
1. Cc1cccc(C(C(=O)NCc2csc(-c3ncccn3)n2)N(C)C)c1 (configuration not stated)
2. Cc1ncnc2c1CCN(S(=O)(=O)C1CC1)CC2
3. O=C(C1CCCN(c2nc3ccccc3cc2CO)C1)N1CCCC1 (configuration not stated)
4. Cc1nc(C)n(CC2CCCN2Cc2nc(-c3cccs3)no2)n1 (configuration not stated)
5. Cn1ccnc1C(=O)NC[C@@H]1OC[C@H]2CN(CC3CC3)CC[C@H]21

[A]
1. 2.14
2. -108
3. -47.5
4. -4.02
5. -115

For each of the compounds below, state cytotoxicity at 10 µM.
1. CN(C)C(CNS(=O)(=O)c1cnn(C)c1)c1cccc(F)c1 (configuration not stated)
2. COCCn1c2c(ccc1=O)CC(NC(=O)c1cscn1)CC2 (configuration not stated)
3. CC(C)(C(=O)N1CCC(CS(N)(=O)=O)CC1)c1ccccc1F

[A]
1. 5.66
2. -97
3. 6.03

For each of the compounds below, state cytotoxicity at 10 µM.
1. O=C(Cc1ccc2c(c1)CCO2)N1CCCC1c1noc(C2CC2)n1 (configuration not stated)
2. CCC(=O)N1CCN(c2ncnc3c(C)nn(C)c23)CC1
3. Cc1ccc(CNC(=O)Cn2ncc3c2c(C)nn3C)cc1

[A]
[-7.71, -1.43, 22.2]

Cited source: ChEMBL document CHEMBL4513216
